systemName: D-alanyl-D-alanine carboxypeptidase (Actinomadura sp. R39)
Sequence (P39045 whole entry): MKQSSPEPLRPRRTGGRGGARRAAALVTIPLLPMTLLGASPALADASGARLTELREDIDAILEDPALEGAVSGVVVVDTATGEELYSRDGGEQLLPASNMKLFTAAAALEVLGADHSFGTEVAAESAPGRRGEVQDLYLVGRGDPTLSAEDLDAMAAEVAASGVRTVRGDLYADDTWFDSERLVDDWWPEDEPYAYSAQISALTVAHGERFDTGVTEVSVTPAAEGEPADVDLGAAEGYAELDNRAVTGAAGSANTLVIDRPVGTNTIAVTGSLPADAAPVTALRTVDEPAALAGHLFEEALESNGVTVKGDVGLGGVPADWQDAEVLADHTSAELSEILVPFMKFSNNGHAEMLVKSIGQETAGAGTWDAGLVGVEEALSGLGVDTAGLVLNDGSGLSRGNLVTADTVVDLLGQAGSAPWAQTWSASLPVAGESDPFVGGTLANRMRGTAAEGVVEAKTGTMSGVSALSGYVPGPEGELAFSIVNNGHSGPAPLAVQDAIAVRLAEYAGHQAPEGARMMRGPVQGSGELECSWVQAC
pIC50: −log10 of the molar value.
Entries and their pIC50
measure: pIC50

{"structure": "O=C(O)c1cc(NC(=O)c2ccccc2)cc(B(O)O)c1", "valueMeasured": 4.47}
{"structure": "O=C(COc1ccccc1)Nc1cc(B(O)O)cc(C(=O)O)c1", "valueMeasured": 4.55}
{"structure": "O=C(O)c1cccc(B(O)O)c1", "valueMeasured": 3.40}
{"structure": "O=C(Cc1ccccc1)Nc1cc(B(O)O)cc(C(=O)O)c1", "valueMeasured": 4.06}
{"structure": "O=C(O)c1cc(NC(=O)c2cccs2)cc(B(O)O)c1", "valueMeasured": 4.49}
{"structure": "COc1ccccc1C(=O)Nc1cc(B(O)O)cc(C(=O)O)c1", "valueMeasured": 4.64}
{"structure": "O=C(Cc1cccs1)Nc1cc(B(O)O)cc(C(=O)O)c1", "valueMeasured": 4.11}
